# Tested on: transglutaminase (TGase)
# procedure-details: Measurement of TG (TGase inhibitory activity, monodansyl cadaverine / N,N-dimethylcasein fluorescence, FDSS 3000)
# Assay type: biochemical
# run-parameters: TGase inhibitory activity value, Table 1
endpoint-label: TGase activity remaining (% of DMSO control = 100)

[
  {
    "compound": "Cc1ccc(B(OC(CN)c2ccccc2)c2ccc(C)c(Cl)c2)cc1Cl (centres unmarked)",
    "test-target": "transglutaminase (TGase)",
    "observed": 1
  },
  {
    "compound": "N=C(N)NCCCC(N)C(=O)OB(c1ccccc1)c1ccccc1 (centres unmarked) [Example 122, diphenyl(argininate-O,N)borane]",
    "test-target": "transglutaminase (TGase)",
    "observed": 93
  },
  {
    "compound": "Cc1ccc(B(OC(=O)C(N)CCC(N)=O)c2ccc(C)c(Cl)c2)cc1Cl (centres unmarked)",
    "test-target": "transglutaminase (TGase)",
    "observed": 137
  },
  {
    "compound": "NC(=O)CC[C@H](N)C(=O)OB(c1ccc(Cl)c(F)c1)c1ccc(Cl)c(F)c1",
    "test-target": "transglutaminase (TGase)",
    "observed": 124
  },
  {
    "compound": "OB(CCCCB(O)c1ccccc1)c1ccccc1 [Example 113, 1,4-bis(hydroxyphenylboryl)butane]",
    "test-target": "transglutaminase (TGase)",
    "observed": 112
  },
  {
    "compound": "OB(c1cc(Cl)ccc1F)c1cc(Cl)ccc1F",
    "test-target": "transglutaminase (TGase)",
    "observed": 111
  },
  {
    "compound": "c1ccc(CNCCOB(c2ccccc2)c2cccc3ccccc23)cc1 [Example 204, phenyl naphthyl benzylaminoethylborinate]",
    "test-target": "transglutaminase (TGase)",
    "observed": 61
  },
  {
    "compound": "Cc1ccc(NCCOBc2ccc(COCc3ccc(BOCCNc4ccc(C)cc4)cc3)cc2)cc1",
    "test-target": "transglutaminase (TGase)",
    "observed": 108
  },
  {
    "compound": "NCCOB(c1ccccc1)c1cccc(COCc2cccc(B(OCCN)c3ccccc3)c2)c1",
    "test-target": "transglutaminase (TGase)",
    "observed": 24
  },
  {
    "compound": "Cc1ccc(B(OCC(N)c2ccccc2)c2ccc(C)c(Cl)c2)cc1Cl (centres unmarked)",
    "test-target": "transglutaminase (TGase)",
    "observed": "−7"
  },
  {
    "compound": "OB(c1ccccc1)c1cccc(-c2cccc(B(O)c3ccccc3)n2)n1 [Example 381, 6,6′-(phenylhydroxyboryl)-2,2′-dipyridyl]",
    "test-target": "transglutaminase (TGase)",
    "observed": 55
  },
  {
    "compound": "OB(c1ccc(F)c(F)c1)c1ccc(F)c(F)c1",
    "test-target": "transglutaminase (TGase)",
    "observed": 93
  },
  {
    "compound": "Cc1ccc(B(OC(=O)C(N)CCN)c2ccc(C)c(Cl)c2)cc1Cl (centres unmarked)",
    "test-target": "transglutaminase (TGase)",
    "observed": 116
  },
  {
    "compound": "NCCOB(c1ccccc1)c1ccccc1B(OCCN)c1ccccc1",
    "test-target": "transglutaminase (TGase)",
    "observed": 101
  },
  {
    "compound": "OB(c1ccccc1)c1ccc2sc3ccc(B(O)c4ccccc4)cc3c2c1",
    "test-target": "transglutaminase (TGase)",
    "observed": 96
  },
  {
    "compound": "O=C(OB(c1ccccc1)c1ccccc1)C1CNCCN1 (centres unmarked)",
    "test-target": "transglutaminase (TGase)",
    "observed": 103
  },
  {
    "compound": "c1ccc(B2OCCN3CCN(CCOB(c4ccccc4)c4cccc(c4)COCc4cccc2c4)CC3)cc1",
    "test-target": "transglutaminase (TGase)",
    "observed": 122
  }
]

* * *

# Test system: transglutaminase (TGase)
# procedure-details: Measurement of TG (TGase inhibitory activity, monodansyl cadaverine / N,N-dimethylcasein fluorescence, FDSS 3000)
# Format: biochemical
# run-parameters: TGase activity with compound (10 mM, 1 μL in 0.1 ml enzyme reaction solution); DMSO control taken as 100
endpoint-label: TGase activity remaining (% of DMSO control = 100)

[
  {
    "compound": "CCCCB(O)c1ccccc1 [Example 108, normal-butyl phenyl borinic acid]",
    "observed": 111
  },
  {
    "compound": "Cc1ccc(B(O)c2ccc(Oc3ccc(B(O)c4ccc(C)cc4)cc3)cc2)cc1 [Example 365]",
    "observed": 118
  },
  {
    "compound": "c1ccc(B(OCc2ccccn2)c2ccc(Oc3ccc(B(OCc4ccccn4)c4ccccc4)cc3)cc2)cc1 [Example 432]",
    "observed": 60
  },
  {
    "compound": "N#Cc1ccc(B(OCc2ccccn2)c2ccc(C#N)cc2)cc1 [Example 104]",
    "observed": 94
  },
  {
    "compound": "NC(=O)CC[C@H](N)C(=O)OB(c1ccc(Cl)c(F)c1)c1ccc(Cl)c(F)c1 [Example 96]",
    "observed": 124
  },
  {
    "compound": "NCCOB(c1ccccc1)c1ccc(COCc2ccc(B(OCCN)c3ccc(COCc4ccc(B(OCCN)c5ccccc5)cc4)cc3)cc2)cc1 [Example 189]",
    "observed": 119
  },
  {
    "compound": "OB(c1ccc(COCc2ccc(B(O)c3ccc(C(F)(F)F)cc3)cc2)cc1)c1ccc(C(F)(F)F)cc1 [Example 143]",
    "observed": 118
  },
  {
    "compound": "Cc1ccc(B(OC(CN)c2ccccc2)c2ccc(C)c(Cl)c2)cc1Cl (stereo not shown) [Example 209]",
    "observed": 1
  },
  {
    "compound": "NCCOB(c1ccc(COCc2ccc(B(OCCN)c3ccc(F)c(F)c3)cc2)cc1)c1ccc(F)c(F)c1 [Example 416]",
    "observed": 114
  },
  {
    "compound": "c1ccc(B(OC2CCCNC2)c2ccc(Oc3ccc(B(OC4CCCNC4)c4ccccc4)cc3)cc2)cc1 (stereo not shown) [Example 431]",
    "observed": 118
  },
  {
    "compound": "NCCOB(c1ccccc1)c1ccc2sc3ccc(B(OCCN)c4ccccc4)cc3c2c1 [Example 408]",
    "observed": 108
  },
  {
    "compound": "NC(=O)CC(N)C(=O)OB(c1ccccc1)c1ccc(Oc2ccc(B(OC(=O)C(N)CC(N)=O)c3ccccc3)cc2)cc1 (stereo not shown) [Example 274]",
    "observed": 56
  },
  {
    "compound": "CC(CN)OB(c1ccccc1)c1ccc(COCc2ccc(B(OC(C)CN)c3ccccc3)cc2)cc1 (stereo not shown) [Example 458]",
    "observed": 31
  },
  {
    "compound": "OB(c1ccccc1)c1ccc2sc3ccc(B(O)c4ccccc4)cc3c2c1 [Example 387]",
    "observed": 96
  },
  {
    "compound": "NC(CCC(=O)O)C(=O)OB(c1ccccc1)c1ccc(Oc2ccc(B(OC(=O)C(N)CCC(=O)O)c3ccc(CO)cc3)cc2)cc1 (stereo not shown) [Example 393]",
    "observed": 117
  },
  {
    "compound": "c1ccc(B(OCCN2CCCCC2)c2ccc(COCc3ccc(B(OCCN4CCCCC4)c4ccccc4)cc3)cc2)cc1 [Example 459]",
    "observed": 80
  },
  {
    "compound": "OB(c1ccccc1)c1cccc(COCc2cccc(B(O)c3ccccc3)c2)c1 [Example 7]",
    "observed": 14
  },
  {
    "compound": "NCCSB(c1ccccc1)c1ccccc1 [Example 151, 2-aminoethylthiodiphenylborane]",
    "observed": 33
  },
  {
    "compound": "NCCOB(c1ccc(F)c(Cl)c1)c1ccc(F)c(Cl)c1 [Example 77]",
    "observed": 98
  }
]

* * *

# System: transglutaminase (TGase)
# procedure-details: Measurement of TG (TGase inhibitory activity, monodansyl cadaverine / N,N-dimethylcasein fluorescence, FDSS 3000)
# Type: biochemical
# run-parameters: TGase activity with compound (10 mM, 1 μL in 0.1 ml enzyme reaction solution); DMSO control taken as 100
Examples of molecules with documented TGase activity remaining (% of DMSO control = 100) follow.
endpoint-label: TGase activity remaining (% of DMSO control = 100)

[
  {
    "molecule": "NC(=O)CCC(N)C(=O)OB(c1ccc(Oc2ccc(B(OC(=O)C(N)CCC(N)=O)c3cccc4ccccc34)cc2)cc1)c1cccc2ccccc12 (stereo not drawn)",
    "observed": 20
  },
  {
    "molecule": "OB(c1ccccc1)c1ccc2ccccc2c1-c1c(B(O)c2ccccc2)ccc2ccccc12",
    "observed": 139
  },
  {
    "molecule": "c1cc(B(OCC2CCCN2)c2ccc3sc4ccc(B(OCC5CCCN5)c5ccsc5)cc4c3c2)cs1 (stereo not drawn)",
    "observed": 81
  }
]
